System: 817829-284-R-J1-PDC complex spheroids, viability
Test: Anticancer human tumor 817829-284-R-J1-PDC patient-derived colon adenocarcinoma cell line growth inhibition [CLK]
Conditions: second compound 3.16 µM; first compound 1 µM; hits give low values
Response field label: string, one of t (viability, T/C strictly below 20%) or f.

Enquiry: Answer whether the compound O=C(c1cc(Cc2n[nH]c(=O)c3ccccc23)ccc1F)N1CCN(C(=O)C2CC2)CC1 + CNC(=O)c1ccc(Nc2nc(OC3CCCC3)c3c(-c4ccc5nc(C)oc5c4)c[nH]c3n2)c(OC)c1 has viability, T/C strictly less than 20%
Return: f

Enquiry: Answer whether the compound COc1ccc([C@@H](O)c2cc(-c3ncnc4cc(N5CCOCC5)ccc34)c(F)cc2Cl)nn1 + CN1CCN(c2cc(C(=O)Nc3cc4cc(-c5cnn(C)c5)ccc4cn3)ccn2)CC1 has viability, T/C strictly less than 20%
Return: t

Enquiry: Answer whether the compound COc1c(OCCCN2CCOCC2)ccc2c3n(c(=NC(=O)c4cnc(N)nc4)nc12)CCN3 + CNC(=O)c1ccc(Nc2nc(OC3CCCC3)c3c(-c4ccc5nc(C)oc5c4)c[nH]c3n2)c(OC)c1 has viability, T/C strictly less than 20%
Return: t

Enquiry: Answer whether the compound CC1COCCN1c1cc(C2(S(C)(=N)=O)CC2)nc(-c2ccnc3[nH]ccc23)n1 (stereo not given) + CN1CCN(c2cc(C(=O)Nc3cc4cc(-c5cnn(C)c5)ccc4cn3)ccn2)CC1 has viability, T/C strictly less than 20%
Return: t

###

System: 817829-284-R-J1-PDC complex spheroids, viability
Test: Anticancer human tumor 817829-284-R-J1-PDC cell line growth inhibition [CLK]; active = viability on the fitted dose curve at most 10% of control; inactive = the rest;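 further: spheroids exposed to the agents for seven days before readout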
Conditions: second compound 0.316 µM; first compound 10 µM
# valid calls are 1 (active), 0 (inactive); nothing else

Enquiry: For this molecule, state the assay outcome: CC(=O)O[C@H]1C(=O)[C@@]2(C)[C@H]([C@H](OC(=O)c3ccccc3)[C@]3(O)C[C@H](OC(=O)[C@H](O)[C@@H](NC(=O)c4ccccc4)c4ccccc4)C(C)=C1C3(C)C)[C@]1(OC(C)=O)CO[C@@H]1C[C@@H]2O + CNC(=O)c1ccc(Nc2nc(OC3CCCC3)c3c(-c4ccc5nc(C)oc5c4)c[nH]c3n2)c(OC)c1
Return: 0

Enquiry: For this molecule, state the assay outcome: CC1COCCN1c1cc(C2(S(C)(=N)=O)CC2)nc(-c2ccnc3[nH]ccc23)n1 (stereo not given) + CN1CCN(c2cc(C(=O)Nc3cc4cc(-c5cnn(C)c5)ccc4cn3)ccn2)CC1
Return: 1

Enquiry: For this molecule, state the assay outcome: O=C(c1cc(Cc2n[nH]c(=O)c3ccccc23)ccc1F)N1CCN(C(=O)C2CC2)CC1 + CN1CCN(c2cc(C(=O)Nc3cc4cc(-c5cnn(C)c5)ccc4cn3)ccn2)CC1
Return: 1

Enquiry: For this molecule, state the assay outcome: COC1C=CCC(C)C(C)S(=O)(=O)NC(=O)c2ccc3c(c2)N(CC2CCC21)CC1(CCCc2cc(Cl)ccc21)CO3 (stereo not given) + CN1CCN(c2cc(C(=O)Nc3cc4cc(-c5cnn(C)c5)ccc4cn3)ccn2)CC1
Return: 1

Enquiry: For this molecule, state the assay outcome: C#Cc1c(F)ccc2cc(O)cc(-c3ncc4c(N5CC6CCC(C5)N6)nc(OCC56CCCN5CC(F)C6)nc4c3F)c12 (stereo not given) + CN1CCN(c2cc(C(=O)Nc3cc4cc(-c5cnn(C)c5)ccc4cn3)ccn2)CC1
Return: 1
